Taken from ChEMBL document CHEMBL3091443.

// values below are reported pIC50
TARGET DESC: Dual specificity tyrosine-phosphorylation-regulated kinase 1A (Rattus norvegicus, UniProt Q63470)
EXPERIMENT: Inhibition of rat recombinant GST-tagged DYRK1A expressed in Escherichia coli using KKISGRLSPIMTEQ as substrate after 30 mins by scintillation counting analysis
pIC50: −log10 of the molar value.
VALUE TYPE: pIC50

smiles=Fc1ccc(Nc2ncnc3c2oc2cc(-c4ccc5c(c4)OCO5)cnc23)cc1Cl recorded_measurement="< 5.00"
smiles=Nc1ncnc2c1oc1cc(-c3ccc4c(c3)OCO4)cnc12 recorded_measurement=5.64
smiles=c1nc(Nc2ccc3c(c2)OCO3)c2oc3cc(-c4ccc5c(c4)OCO5)cnc3c2n1 recorded_measurement="< 5.00"
smiles=Cc1ccc(-c2cnc3c(c2)oc2c(N)ncnc23)cc1 recorded_measurement=5.36
smiles=Nc1ncnc2c1oc1cc(-c3ccc(Cl)c(Cl)c3)cnc12 recorded_measurement="< 5.00"
smiles=COc1cc(Nc2ncnc3c2oc2cccnc23)cc(OC)c1OC recorded_measurement="< 5.00"
